# target-or-test-system: GSK3α (GST-full length GSK3α) (Homo sapiens (Human), UniProt P49840)
# Sequence (P49840 whole entry): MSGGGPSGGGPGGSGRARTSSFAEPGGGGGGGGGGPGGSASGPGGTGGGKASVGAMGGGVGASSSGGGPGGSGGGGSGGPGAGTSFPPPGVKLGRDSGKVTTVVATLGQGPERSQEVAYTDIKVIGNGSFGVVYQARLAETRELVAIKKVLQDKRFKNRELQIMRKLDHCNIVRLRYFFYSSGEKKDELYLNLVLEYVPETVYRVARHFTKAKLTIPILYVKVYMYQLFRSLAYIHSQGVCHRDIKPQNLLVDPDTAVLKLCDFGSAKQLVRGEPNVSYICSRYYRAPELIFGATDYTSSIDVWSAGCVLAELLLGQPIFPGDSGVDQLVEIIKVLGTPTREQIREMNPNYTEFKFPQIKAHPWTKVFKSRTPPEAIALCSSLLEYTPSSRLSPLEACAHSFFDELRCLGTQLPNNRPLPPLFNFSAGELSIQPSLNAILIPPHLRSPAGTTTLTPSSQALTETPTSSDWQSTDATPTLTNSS
# test-details: GSK3α TR-FRET kinase assay
# Assay type: biochemical
# run-parameters: 1 nM GSK3α, 4 μM ATP, 30 minute preincubation, Table 16; read-out: GSK3-A TR-FRET BIOCHEMICAL (TR-FRET)
Reported IC50 values follow for various compounds

// solved cases for IC50 follow
CC1(C)CC(=O)C2=C(C1)Nc1n[nH]cc1C21CCCC1 :: ≤ 100 nM
CC[C@]1(c2cccc(-c3ccncc3C(F)(F)F)c2)C2=C(CC(C)(C)CC2=O)Nc2n[nH]cc21 :: ≤ 100 nM
CC1(C)CCC2(CC1)C1=C(CC(C)(C)CC1=O)Nc1n[nH]cc12 :: ≤ 100 nM
CCC1(c2cccc(S(=O)(=O)C3CCCCC3)c2)C2=C(CC(C)(C)CC2=O)Nc2n[nH]cc21 (stereo not shown) [Compound 943547] :: 1000 to 5000 nM
CCC1(c2cccc(-c3ccnc4c3CCCC4)c2)C2=C(CC(C)(C)CC2=O)Nc2n[nH]cc21 (stereo not shown) :: ≤ 100 nM
CC1(C)CC(=O)C2=C(C1)Nc1n[nH]cc1C21CCCSCC1 (stereo not shown) :: ≤ 100 nM
C[C@@H]1C[C@H](C)C[C@]2(C1)C1=C(CC(C)(C)CC1=O)Nc1n[nH]cc12 :: 100 to 1000 nM
Cc1ccc(S(=O)(=O)N2CCC3(CC2)C2=C(CC(C)(C)CC2=O)Nc2n[nH]cc23)cc1 :: ≤ 100 nM

Ask | Request the reported IC50 associated with COc1ccccc1S(=O)(=O)N1CC2(C1)C1=C(CC(C)(C)CC1=O)Nc1n[nH]cc12
Reply | ≤ 100 nM

Ask | Request the reported IC50 associated with CC[C@@]1(c2cccc(-c3ccnc4c3CCC4)c2)C2=C(CC(C)(C)CC2=O)Nc2n[nH]cc21
Reply | 1000 to 5000 nM

Ask | Request the reported IC50 associated with CCC1(c2cccc(-c3ccncc3CO)c2)C2=C(CC(C)(C)CC2=O)Nc2n[nH]cc21 (stereo not shown)
Reply | ≤ 100 nM

Ask | Request the reported IC50 associated with CC1(C)CC2=C(C(=O)C1F)[C@]1(CC[C@@H](C(F)(F)F)CC1)c1c[nH]nc1N2 (stereo partly shown)
Reply | ≤ 100 nM

Ask | Request the reported IC50 associated with Cc1ncc(S(=O)(=O)N2CCC3(CC2)C2=C(CC(C)(C)CC2=O)Nc2n[nH]cc23)o1
Reply | ≤ 100 nM

====

Reported pIC50 values follow for various molecules
# target-or-test-system: GSK3α (GST-full length GSK3α) (Homo sapiens (Human), UniProt P49840)
# test-details: GSK3α TR-FRET kinase assay
# Format: biochemical
# run-parameters: 1 nM GSK3α, 4 μM ATP, 30 minute preincubation, Table 16; read-out: GSK3-A TR-FRET BIOCHEMICAL (TR-FRET); IC50
pIC50: −log10 of the molar value.

// solved cases for pIC50 follow
CCC1(c2cccc(-c3cn[nH]c3)c2)C2=C(CC(C)(C)CC2=O)Nc2n[nH]c(C)c21 (centres unmarked) [Compound 913025] :: ≥ 7.00
CC1(C)CC(=O)C2=C(C1)Nc1n[nH]cc1[C@]21CCO[C@H](C(F)(F)F)C1 :: 5.30 to 6.00
CC[C@]1(C)C2=C(CC(C)(C)CC2=O)Nc2n[nH]cc21 [Compound 884019] :: 6.00 to 7.00
CCC1(c2cccc(S(=O)(=O)Cc3ccccc3)c2)C2=C(CC(C)(C)CC2=O)Nc2n[nH]cc21 (centres unmarked) :: ≥ 7.00
CC[C@@]1(c2cccc(N(C)c3cnccn3)c2)C2=C(CC(C)(C)CC2=O)Nc2n[nH]cc21 :: ≥ 7.00

Ask | Request the reported pIC50 associated with CN1CCC2(CC1)C1=C(CC(C)(C)CC1=O)Nc1n[nH]cc12
Reply | < 5.30

Ask | Request the reported pIC50 associated with CCC1(c2cccc(S(=O)(=O)C(C)C)c2)C2=C(CC(C)(C)CC2=O)Nc2n[nH]cc21 (centres unmarked) [Compound 913135]
Reply | ≥ 7.00

Ask | Request the reported pIC50 associated with CC[C@@]1(c2cccc(-c3cnn4ccncc34)c2)C2=C(CC(C)(C)NC2=O)Nc2n[nH]cc21
Reply | < 5.30
